FYI, the data here is from PubChem BioAssay (NCI).

system: MDA-MB-435; experiment: NCI tumour cell line growth inhibition, 48 h
Reported log10 TGI values for the following compounds.
Recorded TGI (log10, µM)

Recorded log10 TGI, per entry:
[in] Item under review: `C=CC(=O)N1CCN(c2nc(OC[C@@H]3CCCN3C)nc3c(F)c(-c4nc(N)cc(C)c4C(F)(F)F)c(Cl)cc23)[C@@H](C)C1` . Reported log10 TGI?
[out] 0.67

[in] Try this compound next: `NC(=O)c1c(NC(=O)c2ccc(C(F)(F)F)cc2Cl)sc2c1CCC(=O)C2`
[out] 0.25

[in] And what about the compound C1=C(c2ccccc2)NC2=N[C@H]3CCCC[C@@H]3N2C1c1ccccc1 (stereo not given in full) ?
[out] 1.42

[in] Entry to check: `O=C(/C=C/c1cccc(Cl)c1)c1ccccc1`
[out] 0.73

Now look at this entry.
[in] I would be grateful if you could share the reported log10 TGI for `CCN1C(c2ccccc2)=CC(c2ccccc2)(C(Cl)(Cl)Cl)C=C1c1ccccc1` .
[out] 0.98

---

system: OVCAR-8 ovarian; assay: NCI tumour cell line growth inhibition, 48 h
Collected TGI values appear next to each entry.
Give your result in µM as a bare value.

[in] # lookup: TGI of COc1cccc(C2c3cc4c(cc3OC(N3CCCC3)C2c2ccccc2)OCO4)c1O (stereo not drawn)
[out] 61.2

[in] Lookup C=CCC(NCc1ccccc1)c1cn(C(=O)OCC)c2ccccc12 (stereo not drawn)
[out] 61.1

[in] Would you kindly repeat that for `CC(C)(C)c1cc(C(C)(C)C)c(SSc2c(C(C)(C)C)cc(C(C)(C)C)c(O)c2O)c(O)c1O` ?
[out] 47.7

[in] // same read-out, input: `Cc1ccccc1-n1c(=O)nc2n(-c3ccc(C(C)(C)C)cc3)c3ccccc3cc-2c1=O`
[out] 42.9

[in] Next up: `O=C(N/N=C/c1cc(Cl)cc(Cl)c1[O-])c1ccccc1O.O=C(N/N=C/c1cc(Cl)cc(Cl)c1[O-])c1ccccc1O.[Mn+2]`
[out] 2.3

Further cases:
[in] // returns reported TGI for input `CN1CC[C@@]2(c3cccc(O)c3)CC(=O)/C(=C/c3ccc(Cl)c(Cl)c3)[C@H]1C2`
[out] 10.1

[in] Input COC(=O)N1C=CC2=C(C)C3Nc4ccccc4C3C(C)=C2C1 (stereo not drawn)
[out] 7.5

[in] Also, C[C@H]1CCC/C=C/[C@@H]2C[C@H](O)C[C@H]2[C@H](O)C(O)C(O)C(=O)O1 (stereo partly drawn) please.
[out] 5.11

[in] Okay, and `COc1ccc(C(=O)c2no[n+]([O-])c2C(=O)c2ccc(OC)cc2)cc1` ?
[out] 6.6

[in] What about CCCCCCCCCCCCCCCCNc1nc(=O)n(C2CC(O)C(COP(=O)(O)OC3CC(n4cc(F)c(=O)[nH]c4=O)OC3CO)O2)cc1F (stereo not drawn) ?
[out] 44.2

---

system: NCI/ADR-RES ovarian; assay: NCI tumour cell line growth inhibition, 48 h
PROPERTY MEASURED: TGI

[in] Fill in the recorded TGI for this compound, with NCI/ADR-RES ovarian as test system: `C=CCn1c(C)nc2cc(Nc3nc(N4CCCC4)nc4nc[nH]c34)ccc21`
[out] > 100 µM

***
[in] So what TGI did CCc1cn(C2CC(CO)C(CO)S2)c(=O)[nH]c1=O (stereo not given) get with NCI/ADR-RES ovarian?
[out] > 100 µM

[in] Can you handle `CC(C)CC1C(=O)OC(C)(C)OC1=O` next?
[out] > 100 µM

[in] And CC(=O)OC1CCC2(C)C(=CCC3C2CCC2(C)C3CC3OC4(CCC(C)CN4)C(C)C32)C1 (stereo not given) ?
[out] > 100 µM

[in] Same thing, different compound: `CCOC(=O)c1nc2sc(Cl)cn2c1/C=N/N=C(N)N`
[out] > 83.4 µM

[in] # iterate: COc1ccc(-n2c(C)nc3ccc(NC4OC(COC(C)=O)C(OC(C)=O)C(OC(C)=O)C4OC(C)=O)cc3c2=O)cc1 (stereo not given)
[out] > 100 µM

[in] Next: `CN(C)Cc1c[nH]c2nc[nH]c(=O)c12`
[out] > 100 µM

[in] // same read-out, input: `CCOC(=O)c1sc2c(c1OC(=O)c1ccco1)c(=O)n(-c1ccccc1)c(=S)n2-c1ccccc1`
[out] 57 µM

[in] Would you kindly repeat that for `Cc1ccc(C(=O)c2[nH]c(NCc3ccccc3)c(C(=S)Nc3ccccc3)c2N)cc1` ?
[out] 8.51 µM

[in] Would you mind doing `O=C1/C(=C/c2ccc([N+](=O)[O-])cc2)Oc2cc(O)ccc21` as well?
[out] 88.3 µM
